experimental details: NOD1 signaling inhibitors, primary screen, cell-based, luminescence, uHTS (AID 1578);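 note: HEK-293T reporter cells stimulated with the NOD1 agonist gamma-tri-DAP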
condition label: NOD1-driven NF-kB luciferase reporter cells, at 4 µM, hits give high values
Hit rate of the full screen: of about 290,000 compounds, about 3,000 (1%) were called active. The list comes from a sample in which actives are over-represented; it also holds close analogues and randomly drawn compounds.
quantity name: inhibition (%)
# value in %; strip the unit string

Cc1ccc(N2CCC(N3CCN(C4CCCCC4)C(CCO)C3)CC2)cc1 (stereo not given) :: -17.5
CN(C)CCNC(=O)/C(=C/c1ccc(-c2cccc([N+](=O)[O-])c2)o1)NC(=O)c1ccccc1 :: 4.2
COC(=O)c1nc(NC(=O)c2cc(OC)c(OC)c(OC)c2)n[nH]1 :: 15.5

Entry CN(C)CCNC(=O)/C(=C/c1ccc(-c2ccc(Cl)cc2)o1)NC(=O)c1ccccc1 ; inhibition = -19.3

Entry COc1cc2ccccc2cc1C(=O)Nc1ccc2oc(=O)ccc2c1 ; inhibition = 46.4

----------
experimental details: NOD1 signaling inhibitors, primary screen, cell-based, luminescence, uHTS (AID 1578);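 note: HEK-293T reporter cells stimulated with the NOD1 agonist gamma-tri-DAP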
condition label: NOD1-driven NF-kB luciferase reporter cells, at 4 µM
Among all 290,000 compounds or so, about 3,000 (1%) were called active. Rule as the data show it: active = inhibition mostly above about 36% (no sharp cut-off); inactive = mostly below about 34%. For the sample, actives were picked, then their nearest neighbours and some compounds at random.
Return exactly one item of active, inactive

Some solved entries appear below for comparison.
COc1ccc(-c2csc3nc(-c4cccnc4)nc(N4CCC(C(N)=O)CC4)c23)cc1OC :: inactive
CCC(CO)[n+]1c(C)cc(/C=C2\Sc3ccccc3N2Cc2ccccc2)cc1C (stereo not given) :: active
O=C(c1ccco1)N1CCN(c2nc(C3CC3)nc3c2nnn3Cc2ccccc2Cl)CC1 :: active
C[n+]1ccccc1/C=C1\Sc2ccccc2N1CCO :: inactive
CCOc1ccccc1N1CC(C(=O)N2CCc3ccccc32)CC1=O (stereo not given) :: inactive

*Q* What classification did COc1ccc(-c2csc3nc(-c4cccnc4)nc(Cl)c23)cc1OC end up with in this test?
*A* active

*Q* What classification did CCN1/C(=C2\SC(=S)N(Cc3ccccc3)C2=O)Sc2ccccc21 end up with in this test?
*A* inactive

*Q* What classification did COc1ccc(OC)c(NC(=O)COC(=O)/C=C/c2c(C)nn(C3CCS(=O)(=O)C3)c2Cl)c1 (stereo not given) end up with in this test?
*A* inactive

*Q* What classification did Clc1nc(-c2cccnc2)nc2scc(-c3ccccc3)c12 end up with in this test?
*A* inactive

*Q* What classification did CCOC(=O)C1(Nc2nccs2)Sc2ccccc2NC1=O (stereo not given) end up with in this test?
*A* inactive

----------
experimental details: NOD1 signaling inhibitors, primary screen, cell-based, luminescence, uHTS (AID 1578);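 note: HEK-293T reporter cells stimulated with the NOD1 agonist gamma-tri-DAP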
condition label: NOD1-driven NF-kB luciferase reporter cells, at 4 µM, hits give high values
About 3,000 (1%) of roughly 290,000 compounds were called active. What follows is part of a selection rich in actives, with near analogues and random picks from the rest.
quantity name: inhibition (%)
# value in %; strip the unit string

Known results for compounds:
O=C(NCCc1c[nH]c2ccccc12)c1ccc([N+](=O)[O-])cc1 :: -37.7
CCCN(CC(=O)Nc1ccc(NC(C)=O)cc1)CC(=O)Nc1ccc(F)c(F)c1F :: -20.3
CCN(CC)c1ccc(/C=N/Nc2nc3ccccc3[nH]2)cc1 :: 105
Cc1nc(N/N=C/c2ccccn2)sc1C :: 91
COc1ccc(NC(=O)CN(C)C(=O)c2ccc3c(c2)S(=O)(=O)N=C2CCCCCN23)cc1 :: -22
C(=N\Nc1nc2ccccc2[nH]1)/c1ccccc1 :: -71.3

Entry CCCN(CC(=O)Nc1ccc(C(N)=O)cc1)CC(=O)Nc1ccc(Cl)cc1Cl ; inhibition = -30.3

Entry O=C(N/N=C/c1ccc(OC(=O)c2ccccc2)cc1)c1cccnc1 ; inhibition = -4.5

Entry O=C(O)c1cccc(NC(=S)NCc2ccccc2)c1 ; inhibition = -23.1

Entry CC1(C)Cc2nc(N)c(=O)sc2C1 ; inhibition = 5.3

Entry CCOC(=O)c1c(/N=C/c2ccccc2O)sc2c1CCC2 ; inhibition = 8.8

Entry Cc1ccc(C(=O)Nc2cnc3ccccc3c2)cc1 ; inhibition = 81.8

Entry C(=N\Nc1nc2ccccc2[nH]1)/c1ccc2ncccc2c1 ; inhibition = 18.6

Entry CCCN(CC(=O)Nc1ccc(C(N)=O)cc1)CC(=O)Nc1ccc(F)c(F)c1F ; inhibition = 38.1

Entry Cc1csc(N/N=C/c2ccccn2)n1 ; inhibition = 8.7

Entry CCn1nc(C)cc1-c1nnc(Sc2ncc([N+](=O)[O-])s2)n1C ; inhibition = 35.4

Entry CN1Cc2c(N3CCOCC3)nc3sc(C#N)c(N)c3c2CC1(C)C ; inhibition = -1.3

Entry C(=N\Nc1nc2ccccc2[nH]1)/c1ccncc1 ; inhibition = -22

Entry CCN(CC)c1ccc(/C=N/Nc2nc3ccccc3[nH]2)c(O)c1 ; inhibition = 11.9

----------
experimental details: NOD1 signaling inhibitors, primary screen, cell-based, luminescence, uHTS (AID 1578);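 note: HEK-293T reporter cells stimulated with the NOD1 agonist gamma-tri-DAP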
condition label: NOD1-driven NF-kB luciferase reporter cells, at 4 µM, hits give high values
The whole screen tested about 290,000 compounds, of which about 3,000 (1%) were called active. The entries come from a sample that favours actives as a whole.
Listed molecules paired with reported inhibition
# value in %; strip the unit string

Known results for molecules:
CCn1c(C)nc2cc(-c3nc4n(n3)Cc3ccccc3-4)ccc21 :: 94
Cn1ncc(Cl)c1C(=O)Nc1sc2c(c1C(N)=O)CCC2 :: -24.6
O=C(CCN1C(=O)C2CC=C(Cl)CC2C1=O)NC1CCCCC1 (centres undefined) :: -1.2

Entry O=C(CN1C(=O)C2CC=CCC2C1=O)NC1CCCCC1 (centres undefined) ; inhibition = -35.5

Entry Oc1[nH]c(N=C2N=c3ccccc3=N2)c2ccccc12 ; inhibition = 42.6

Entry Cc1ccc(N(C(C)C(=O)Nc2cccc(N(C)S(C)(=O)=O)c2)S(C)(=O)=O)cc1 (centres undefined) ; inhibition = -21.2

Entry O=C(c1cccnc1)N1CCc2ccccc2C1 ; inhibition = -0.9

Entry CC1CN(C(=O)COC(=O)c2cc(Cl)ccc2[N+](=O)[O-])CC(C)O1 (centres undefined) ; inhibition = -25.3

Entry CCn1cc(Br)c(C(=O)Nc2sc3c(c2C(N)=O)CCCC3)n1 ; inhibition = -18.1

Entry O=C(CNCc1ccc(F)cc1)Nc1ccc(S(=O)(=O)N2CCOCC2)cc1 ; inhibition = -26.8

Entry Nc1ccc(-c2nc3ccc(N)cc3s2)cc1 ; inhibition = -7.4

Entry CCOC(=O)C1(CCc2ccccc2)CCN(C(=O)CCn2cnnn2)CC1 ; inhibition = -48

Entry Cc1ccc(-c2nc3n(n2)Cc2ccccc2-3)cc1 ; inhibition = -27.4

Entry Oc1[nH]c2ccccc2c1N=Nc1cccc(Cl)c1 ; inhibition = -10.3

Entry COc1ccc(/C=C2\COc3ccccc3C2=O)c(OC)c1 ; inhibition = -27.3

Entry N#CC(=C1N=c2ccccc2=N1)c1c(O)[nH]c2ccccc12 ; inhibition = 20

Entry Clc1ccc(-c2nc3n(n2)Cc2ccccc2-3)cc1 ; inhibition = -7.2

Entry O=C(CCN1C(=O)C2CC=CCC2C1=O)NC1CCCCC1 (centres undefined) ; inhibition = 44.9

----------
experimental details: NOD1 signaling inhibitors, primary screen, cell-based, luminescence, uHTS (AID 1578);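 note: HEK-293T reporter cells stimulated with the NOD1 agonist gamma-tri-DAP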
condition label: NOD1-driven NF-kB luciferase reporter cells, at 4 µM, hits give high values
Screen size: about 290,000 compounds; about 3,000 (1%) were called active. This excerpt belongs to a sample that is enriched for actives.
Please mark 1 (yes) if the recorded inhibition is equal to or greater than -20%, and 0 (no) if it falls below.

Some solved entries appear below for comparison.
O=S(=O)(c1ccccc1)N(Cc1ccccc1)c1ccccn1 :: 1 (yes)
Cc1[nH]n(-c2ncc(-c3ccccc3)s2)c(=O)c1C(c1ccc(Br)cc1)C(C#N)C#N (stereo not drawn) :: 1 (yes)
O=C(CNS(=O)(=O)c1cccc2nsnc12)NCc1ccc(Cl)cc1 :: 1 (yes)
Cc1nn(Cc2ccccc2)c(C)c1/C=N/NC(=O)c1cccnc1 :: 1 (yes)
CCOC(=O)c1c(-c2ccc(C)cc2)csc1NC1=NS(=O)(=O)c2ccccc21 :: 1 (yes)

Here is another molecule to look at.
*Q* Check the entry CCS(=O)CCSc1nc2ccccc2s1 (stereo not drawn) : does inhibition equal or exceed -20%?
*A* 1 (yes)

----------
experimental details: NOD1 signaling inhibitors, primary screen, cell-based, luminescence, uHTS (AID 1578);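 note: HEK-293T reporter cells stimulated with the NOD1 agonist gamma-tri-DAP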
condition label: NOD1-driven NF-kB luciferase reporter cells, at 4 µM
Screen size: about 290,000 compounds; about 3,000 (1%) were called active. No stated cut-off is given here; in the data, active means inhibition mostly above about 36% (no sharp cut-off); inactive means mostly below about 34%. This is one part of a sample in which actives are shown more often than they occur.
Return exactly one item of active, inactive

Some solved entries appear below for comparison.
Cc1ccc(-n2c(SCc3ccc(C#N)cc3)nnc2-c2ccccn2)cc1 :: inactive
COc1ccc(-c2ccc(/C=C3\C(=O)N(c4ccccc4)N=C3c3ccccc3)o2)c([N+](=O)[O-])c1 :: inactive
O=C(Nc1nc(-c2ccc(-c3ccccc3)cc2)cs1)c1cc([N+](=O)[O-])ccc1N1CCOCC1 :: inactive
Cn1c(/C=C/c2ccccc2)nc2ccccc21 :: active
CCCn1c(/C=C/c2ccccc2)nc2ccccc21 :: inactive

*Q* What classification did CC(C)c1nc2ccccc2n1CC(O)COC1CCCCC1 (stereo not drawn) end up with in this test?
*A* inactive

*Q* What classification did CN(C(=O)CC1C(=O)NCCN1Cc1cccc(F)c1F)C1CCOCC1 (stereo not drawn) end up with in this test?
*A* inactive

*Q* What classification did COc1ccc(/C=C/c2nc3ccccc3n2C)cc1 end up with in this test?
*A* active
